Observation Type: melting point

Solved cases (5 shown):
Chemical Smiles | melting point
CCCCCCCCCCc1ccc2cc3c(cc2c1)sc1cc2c(cc13)sc1cc3cc(CCCCCCCCCC)ccc3cc12 | 263 to 264 °C
CCCCCCCCCCc1ccc2cc3oc4cc5c(cc4c3cc2c1)oc1cc2ccc(CCCCCCCCCC)cc2cc15 | 316 to 317 °C
CCCCCCCCCCc1ccc2cc3c(cc2c1)oc1cc2c(cc13)oc1cc3cc(CCCCCCCCCC)ccc3cc12 | ≥ 350 °C
CCCCCCCCCCc1ccc2cc3c(cc2c1)sc1cc2cc4c(cc2cc13)sc1cc2cc(CCCCCCCCCC)ccc2cc14 | ≥ 300 °C
CCCCCCCCCCc1ccc2cc3sc4cc5c(cc4c3cc2c1)sc1cc2ccc(CCCCCCCCCC)cc2cc15 | 285 to 286 °C

Now, please, on to the next compound.
input: Supply measured melting point of "CCCCCCc1ccc2cc3c(cc2c1)sc1cc2c(cc13)sc1cc3cc(CCCCCC)ccc3cc12" in your reply.
output: > 300 °C
